System: Burkholderia cepacia
assay name: In vitro antibacterial activity against gram negative Pseudomonas cepacia 2961
Format: functional
condition summary: Burkholderia cepacia; read-out: MIC
measured parameter: MIC (µg/mL)

P = Cc1c(N2C[C@H](C)[C@@H](N)C2)c(F)cn2c(=O)c(C(=O)O)cc(C3CC3)c12
Q = Cc1c(N2C[C@@H]3OCC[C@]3(CN)C2)c(F)cn2c(=O)c(C(=O)O)cc(C3CC3)c12
R = Cc1c(N2CCC[C@@H](NC3CC3)C2)c(F)cn2c(=O)c(C(=O)O)cc(C3CC3)c12
S = Cc1c(N2CC[C@H](N)C2)c(F)cn2c(=O)c(C(=O)O)cc(C3CC3)c12 (stereo in doubt; 3i)
T = Cc1c(N2CC[C@@H](NCCF)C2)c(F)cn2c(=O)c(C(=O)O)cc(C3CC3)c12
Order these by MIC, descending, and give the full ranking. # format: label list in the order the request specifies
R, Q, T, P, S
